B1: DFFB (parent)
chain: KLNCDPSRIYKPQTRLKRKQPVRK

# Variants of: B1
# Protocol Description: protein stability index of a GFP-peptide fusion (GPS, HEK-293T) (PSI 1-6); higher = more stable;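 note: lentivirally expressed fusions sorted by FACS into six bins by GFP to DsRed ratio, PSI derived from sequencing read proportions per bin multiplied by bin number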
# Conditions: c terminus: a fixed tail appended
Listed variants paired with reported protein stability index

{"Mutation Code": "L16S", "protein stability index": 3.6}
{"Mutation Code": "L16P", "protein stability index": 3.83}
{"Mutation Code": "S7V", "protein stability index": 3.21}
{"Mutation Code": "K19N", "protein stability index": 3.54}
{"Mutation Code": "R23H", "protein stability index": 3.43}
{"Mutation Code": "I9T", "protein stability index": 3.31}
{"Mutation Code": "L16R", "protein stability index": 3.48}
{"Mutation Code": "K11W", "protein stability index": 3.3}
{"Mutation Code": "K11G", "protein stability index": 3.17}
{"Mutation Code": "K1H", "protein stability index": 1.93}
{"Mutation Code": "R8D", "protein stability index": 3.63}
{"Mutation Code": "P6K", "protein stability index": 4.03}
{"Mutation Code": "K24T", "protein stability index": 4.04}
{"Mutation Code": "T14A", "protein stability index": 3.56}
{"Mutation Code": "D5T", "protein stability index": 2.92}
{"Mutation Code": "I9E", "protein stability index": 3.93}
{"Mutation Code": "P6C", "protein stability index": 3.22}
{"Mutation Code": "R8N", "protein stability index": 3.38}
{"Mutation Code": "D5Q", "protein stability index": 3.32}
{"Mutation Code": "V22S", "protein stability index": 4.09}
{"Mutation Code": "Q20P", "protein stability index": 2.98}
{"Mutation Code": "R8E", "protein stability index": 4.21}
{"Mutation Code": "R15P", "protein stability index": 3.6}
{"Mutation Code": "S7M", "protein stability index": 3.07}
{"Mutation Code": "P12N", "protein stability index": 4.49}
{"Mutation Code": "Q13L", "protein stability index": 3.09}
{"Mutation Code": "P12D", "protein stability index": 3.09}
{"Mutation Code": "K11E", "protein stability index": 4.3}
{"Mutation Code": "R8W", "protein stability index": 3.29}
{"Mutation Code": "C4K", "protein stability index": 3.58}
{"Mutation Code": "N3F", "protein stability index": 3.03}
{"Mutation Code": "K19M", "protein stability index": 3.31}
{"Mutation Code": "P21N", "protein stability index": 3.67}
{"Mutation Code": "K24V", "protein stability index": 2.49}
{"Mutation Code": "T14Y", "protein stability index": 3.49}
{"Mutation Code": "K1T", "protein stability index": 3.87}
{"Mutation Code": "N3Q", "protein stability index": 3.53}
{"Mutation Code": "R8Q", "protein stability index": 3.57}
{"Mutation Code": "K1R", "protein stability index": 4.11}
{"Mutation Code": "K19W", "protein stability index": 2.94}
{"Mutation Code": "I9K", "protein stability index": 3.84}
{"Mutation Code": "K1Q", "protein stability index": 3.37}
{"Mutation Code": "R8F", "protein stability index": 3.55}
{"Mutation Code": "K24Y", "protein stability index": 3.11}
{"Mutation Code": "R8K", "protein stability index": 4}
{"Mutation Code": "L2R", "protein stability index": 4.01}

Cited source: the supplement of paper PMC10567573
